The reported numbers originate from patent US7189851B2.

measure.name: melting point

compound	data.value
CCOC(=O)c1c(CCc2ccc(OC)cc2)nc2c(c1-c1ccc(C(=O)NCc3ccccn3)cc1)C(=O)N1CCC[C@H]1C2 [Example 57]	> 200 °C
CCOC(=O)c1c(CCc2ccc(C(F)(F)F)cc2)nc2c(c1-c1ccc(S(=O)(=O)NCc3ccco3)cc1)C(=O)N1CCC[C@@H]21 [Example 2]	181 to 182 °C
CCOC(=O)c1c(CCc2ccc(C(F)(F)F)cc2)nc2c(c1-c1ccc(C(=O)N[C@@H](C)c3ccncc3)cc1)C(=O)N1CCC[C@@H]21 [Example 5]	158 to 160 °C

Moving on to another compound below.
Lab book: melting point of CCOC(=O)c1c(CCc2ccc(C(F)(F)F)cc2)nc2c(c1-c1ccc(NC(=O)Nc3ccccc3)cc1)C(=O)N1CCC[C@@H]21 [Example 7] noted as 137 to 139 °C

====

Biological target: human calcitonin-2 receptor (hCT2R) (Homo sapiens, UniProt P30988)
Construct: expressed in transfected cells; host or cells: Chinese hamster ovary (CHO) cells co-transfected with a 6CRE-luciferase reporter; receptor cDNA cloned from the MCF7 cell line
Sequence (P30988 25-474): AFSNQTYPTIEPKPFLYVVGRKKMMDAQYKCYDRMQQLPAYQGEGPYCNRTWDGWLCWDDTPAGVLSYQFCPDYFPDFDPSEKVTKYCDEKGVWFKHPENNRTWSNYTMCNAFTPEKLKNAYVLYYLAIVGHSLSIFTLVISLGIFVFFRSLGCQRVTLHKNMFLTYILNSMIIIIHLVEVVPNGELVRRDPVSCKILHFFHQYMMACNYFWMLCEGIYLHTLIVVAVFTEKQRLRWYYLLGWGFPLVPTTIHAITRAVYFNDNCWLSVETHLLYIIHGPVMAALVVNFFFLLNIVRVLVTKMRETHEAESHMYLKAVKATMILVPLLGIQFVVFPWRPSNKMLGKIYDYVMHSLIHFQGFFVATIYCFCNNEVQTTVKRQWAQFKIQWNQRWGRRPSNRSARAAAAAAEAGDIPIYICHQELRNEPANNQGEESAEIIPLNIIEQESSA
Test: HCT2R CRE-luc reporter assay
Type: cell-based
Details: agonist activity; CHO-6CRE-luciferase cells co-transfected with hCT2R
measure.name: EC50

# annotated cases, reported EC50 shown
compound	EC50
CCOC(=O)c1c(CCc2ccc(F)cc2)nc2c(c1-c1cc(C(=O)NC3CCc4ccccc43)cs1)C(=O)N1CCC[C@@H]21 (stereo partly drawn) [Example 15]	≤ 10 nM
CCOC(=O)c1c(CCc2ccc(F)cc2)nc2c(c1-c1ccc(C(=O)N[C@@H]3CCc4ccccc43)s1)C(=O)N1CCC[C@@H]21 [Example 18]	≤ 10 nM

Lab note: next compound to report on.
Field EC50 (entry CCOC(=O)c1c(CCc2ccc(C(F)(F)F)cc2)nc2c(c1-c1ccc(C(=O)N[C@@H](C)c3ccncc3)cc1)C(=O)N1CCC[C@@H]21 [Example 5] ) reads 100 to 1000 nM

====

Target: human calcitonin-2 receptor (hCT2R) (Homo sapiens, UniProt P30988)
Construct: receptor cDNA cloned from the MCF7 cell line
Sequence (P30988 25-474): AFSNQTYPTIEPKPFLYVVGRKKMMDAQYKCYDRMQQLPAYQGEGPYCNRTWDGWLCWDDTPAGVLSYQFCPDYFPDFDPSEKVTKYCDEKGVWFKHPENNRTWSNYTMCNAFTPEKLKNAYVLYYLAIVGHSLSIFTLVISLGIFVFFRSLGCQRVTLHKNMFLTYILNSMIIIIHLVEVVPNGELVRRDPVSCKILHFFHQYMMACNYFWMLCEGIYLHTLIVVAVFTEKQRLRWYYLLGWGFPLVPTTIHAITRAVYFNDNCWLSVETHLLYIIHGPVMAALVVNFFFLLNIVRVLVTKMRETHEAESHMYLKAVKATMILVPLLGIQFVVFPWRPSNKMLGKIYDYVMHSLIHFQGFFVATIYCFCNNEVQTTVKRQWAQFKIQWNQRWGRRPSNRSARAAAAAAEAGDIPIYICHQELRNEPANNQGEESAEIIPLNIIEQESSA
Assay: HCT2R CRE-luc reporter assay
Conditions: agonist activity; CHO-6CRE-luciferase cells co-transfected with hCT2R
pEC50: −log10 of the molar value.
measure.name: pEC50

Lookup result for `O=C(NCc1ccco1)c1ccc(-c2c(C(=O)c3ccco3)c(CCc3ccc(F)cc3)nc3c2C(=O)N2CCC[C@@H]32)cc1` ; measured pEC50: ≥ 8.00

Record summary for `O=C(NCc1ccco1)c1ccc(-c2cc(CCc3ccc(C(F)(F)F)cc3)nc3c2C(=O)N2CCC[C@@H]32)cc1` : reported pEC50 = 6.00 to 7.00

Quick note, pEC50 for CCOC(=O)c1c(Cc2ccsc2)nc2c(c1-c1ccc(C(=O)NCc3ccco3)cc1)C(=O)N1CCCC21 (stereo not shown) landed at 6.00 to 7.00

pEC50 measured on `Cc1nc2c(c(-c3ccc(C(=O)NCc4ccco4)cc3)c1C(=O)CCc1ccc(F)cc1)C(=O)N1CCC[C@@H]21` = 6.00 to 7.00
